The following molecules are listed with their measured Ki values.
# System Under Test: UniProt Q13822
# Experiment Notes: biochemical
# Condition Description: Ki (nM), competitive inhibitors

Below, 2 molecules whose answers are already recorded.
| Line Notation | Ki |
| --- | --- |
| CCn1cc(C(=O)O)c(=O)c2cnc(N3CCN(C(=S)Nc4ccc5nsnc5c4)CC3)nc21 | 30 to 430 nM |
| CCn1cc(C(=O)O)c(=O)c2cnc(N3CCN(C(=S)Nc4cc(C(F)(F)F)cc(C(F)(F)F)c4)CC3)nc21 | 30 to 430 nM |

From here, focus on the item given below.
-- ask Form field - read-out: Ki; system: UniProt Q13822; submitted item: CCn1cc(C(=O)O)c(=O)c2cnc(N3CCN(C(=S)Nc4cccc(C(F)(F)F)c4)CC3)nc21
-- reply 30 to 430 nM

----------
# System Under Test: ATX (Homo sapiens, UniProt Q13822)
# Experiment Notes: ATX inhibition assay with FS-3 substrate
# Format: biochemical
# Set-up: conditioned serum-free medium (CCM) from MDA-MB-435 cells as the source of ATX; endogenous in cells; host or cells: MDA-MB-435 cells (about 10x concentrated serum-free conditioned medium)
# Condition Description: FS-3 substrate
Attribute Measured: IC50 (µM)

Example molecules with recorded IC50:
| Molecule | System Under Test | Uom | IC50 |
| --- | --- | --- | --- |
| CCn1cc(C(=O)O)c(=O)c2cnc(N3CCN(C(=S)Nc4ccc(C(F)(F)F)cc4)CC3)nc21 [Compound 31] | ATX (Homo sapiens, UniProt Q13822) | µM | 1.5 |
| CCn1cc(C(=O)O)c(=O)c2cnc(N3CCN(C(=S)Nc4cccc(F)c4)CC3)nc21 [Compound 25] | ATX (Homo sapiens, UniProt Q13822) | µM | 16.1 |
| CCn1cc(C(=O)O)c(=O)c2cnc(N3CCN(C(=S)Nc4cc(C(F)(F)F)cc(C(F)(F)F)c4)CC3)nc21 [Compound 18] | ATX (Homo sapiens, UniProt Q13822) | µM | 4.4 |
| CCn1cc(C(=O)O)c(=O)c2cnc(N3CCN(C(=S)Nc4cccc(OC)c4)CC3)nc21 [Compound 19] | ATX (Homo sapiens, UniProt Q13822) | µM | 17.7 |
| CCn1cc(C(=O)O)c(=O)c2cnc(N3CCN(C(=S)Nc4ccc5nsnc5c4)CC3)nc21 [Compound 7] | ATX (Homo sapiens, UniProt Q13822) | µM | 12.1 |
| CCn1cc(C(=O)O)c(=O)c2cnc(N3CCN(C(=S)Nc4cccc(C(F)(F)F)c4)CC3)nc21 [Compound 11] | ATX (Homo sapiens, UniProt Q13822) | µM | 0.9 |

a: CCn1cc(C(=O)O)c(=O)c2cnc(N3CCN(C(=S)Nc4ccc(Cl)cc4)CC3)nc21 [Compound 28]
b: CCn1cc(C(=O)O)c(=O)c2cnc(N3CCN(C(=S)Nc4ccc(F)cc4)CC3)nc21 [Compound 23]
-- ask Decide: a or b , by lowest recorded IC50. Answer by stating the label of the chosen item.
-- reply a

----------
# System Under Test: ATX (Homo sapiens, UniProt Q13822)
# Experiment Notes: biochemical
# Condition Description: Ki
pKi: −log10 of the molar value.
Attribute Measured: pKi

| Line Notation | pKi |
| --- | --- |
| CCn1cc(C(=O)O)c(=O)c2cnc(N3CCN(C(=S)Nc4cc(Cl)cc(Cl)c4)CC3)nc21 | 5.80 |

I: CCn1cc(C(=O)O)c(=O)c2cnc(N3CCN(C(=S)Nc4cc(C(F)(F)F)cc(C(F)(F)F)c4)CC3)nc21
II: CCn1cc(C(=O)O)c(=O)c2cnc(N3CCN(C(=S)Nc4cccc(C(F)(F)F)c4)CC3)nc21
-- ask Could you tell me which of these two has the smaller pKi figure? First: I Second: II // return label of chosen record
-- reply I
(I: 6.80, II: 7.52)
